test: qHTS assay for measurement of the activity of small molecule inhibitors on Zika virus induced Caspase-3 activity in human iPSC derived neural progenitor cells (hNPCs) (AID 1224857); conditions: hNPCs ZIKV-induced caspase-3/7, Caspase-Glo luminescence, 6 h; series mostly up to 45.7 µM; note: nearly all actives have a fitted effect of over 65% in size
Results filed as inconclusive are left out. Active and inactive are the calls of the source. Calls come from the whole dose curve; as a rule, active = well fitted inhibition curve with a large enough effect; inconclusive = small, poorly fitted or top-dose-only effect; inactive = no such curve, though single readings can be large or run the other way.
In this exercise, the only acceptable responses are y for active, n for inactive

Example entries and their recorded answers appear below.
# input Recorded call for COc1ccc(C(=O)c2c(C)n(CCN3CCOCC3)c3cc(I)ccc23)cc1 ?
# output n

# input Recorded call for ClC1=C(Cl)[C@]2(Cl)[C@@H]3[C@@H]4C[C@@H]([C@H]5O[C@@H]45)[C@@H]3[C@@]1(Cl)C2(Cl)Cl ?
# output n

# input Recorded call for CN[C@@H]1C[C@@H](c2ccc(Cl)c(Cl)c2)c2ccccc21 ?
# output n

# input Recorded call for C[N+]1(C)C2CC(OC(=O)[C@H](CO)c3ccccc3)CC1C1OC12 (stereo not given in full) ?
# output n

# input Recorded call for CC(C)[C@H]1CN[C@H](C(=O)O)[C@H]1CC(=O)O ?
# output n

More entries:
# input Recorded call for CC(C)[C@H]1C(=O)N[C@H](CO)Cc2c[nH]c3cccc(c23)N1C ?
# output y

# input Recorded call for COC1=C[C@@H]2[C@@H]3Cc4ccc(OC)c(O)c4[C@]2(CCN3C)CC1=O ?
# output n

# input Recorded call for COC(C)(C)CCCC(C)C/C=C/C(C)=C/C(=O)OC(C)C (stereo not given) ?
# output n

# input Recorded call for CCOC(=O)Nc1ccc(NCc2ccc(F)cc2)cc1N ?
# output n

# input Recorded call for C[C@]12CCC(=O)C(O)=C1CC[C@@H]1[C@H]3CCC(=O)[C@@]3(C)CC[C@@H]12 ?
# output n

Cited source: PubChem BioAssay (NCATS)
